- assay-target: Calmodulin-1 (Homo sapiens) (UniProt P0DP23)
- experiment-summary: CALM1 binders on microarrays, EGTA buffer, profiling panel, biochemical, small-molecule microarray, Cy5-labelled CALM1 (AID 1111);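 note: labelled calmodulin applied in Tris saline Tween buffer holding calcium plus EGTA and DTT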
- conditions-used: Cy5-CALM1 binding fluorescence, higher = more signal
Some compounds, each annotated with its measured composite z-score.
Give the figure only, with no unit attached.

INSERT INTO results (compound, endpoint_name, readout_number) VALUES
  ('CCOC(=O)C1=C[C@@H](c2ccccc2)N(S(=O)(=O)c2ccc(C)cc2)[C@H]1c1cccc(Cl)c1', 'composite z-score', 1.64),
  ('C=CCC(OC(C)=O)[C@@H]1[C@@H](N(Cc2cc3ccccc3o2)C(=O)Cc2ccc(F)cc2)c2cc(OCCCO)ccc2N1C(=O)c1ccc2ccccc2n1 (stereo not given in full)', 'composite z-score', -0.408),
  ('CCOC(=O)C1=CC[C@@H](c2ccccc2C(F)(F)F)N(S(=O)(=O)c2ccc(C)cc2)C1', 'composite z-score', 2.07),
  ('O=C1NC(=O)C2C1C=CC(C(O)c1cc(C(F)(F)F)cc(C(F)(F)F)c1)N2Nc1ccc(Cl)cc1Cl (stereo not given)', 'composite z-score', 1.91),
  ('CC=CC(O)C1C=CC2C(=O)N(C)C(=O)C2N1N1CCCCC1 (stereo not given)', 'composite z-score', 1.41);

Challenge: Identify measured composite z-score associated with COC(=O)[C@@]1(Cc2ccc(OC)cc2)[C@H]2c3cc(C(=O)N(C)C)n(Cc4ccccc4)c3C[C@H]2CN1C(=O)c1ccccc1
Response given: 1.63

Challenge: Determine from records and report composite z-score for C=CC[C@]12N=C(c3ccc(OCCCO)cc3)O[C@H]1c1ccccc1N(C)C2=O
Response given: 0.287

Challenge: Provide one value: measured composite z-score of O=C1O[C@@H](c2ccccc2)[C@@H](c2ccccc2)N2[C@@H](c3ccc(O)cc3)[C@]3(C(=O)Nc4ccc(C#CCCO)cc43)[C@@H](C(=O)Nc3nc4ccccc4s3)[C@H]12
Response given: 0.289
